System: Phenion®FT Skin Models
Conditions: human
Consider the following molecules and their measured Dose(s) exceeding the cytotoxicity limit in main or APC experiments readings.
Reply with just the number (in µg/cm^2).

Sample answers from the record:
{"molecule": "CCc1cc(C(N)=S)ccn1 [Ethionamide]", "endpoint-result": 320}
{"molecule": "CC(=O)Nc1ccc2c(c1)Cc1ccccc1-2 [2-AAF, 2-acetylaminofluorene]", "endpoint-result": 80}
{"molecule": "COc1cc(/C=C/C(=O)CC(=O)/C=C/c2ccc(O)c(OC)c2)ccc1O [Curcumin]", "endpoint-result": 50}

**Q:** Query (molecule): Cc1ccc(N)cc1N [2,4-DAT, 2,4-diaminotoluene] ; field requested: Dose(s) exceeding the cytotoxicity limit in main or APC experiments
**A:** 1200

**Q:** Query (molecule): CC(C)(C)c1cc(O)ccc1O [TBHQ, Tert-butylhydroquinone] ; field requested: Dose(s) exceeding the cytotoxicity limit in main or APC experiments
**A:** 20

---

Structures can show the parent of a compound that is named as a salt.
Observed RS Comet assay overall classification, system Phenion®FT Skin Models (keratinocytes and fibroblasts).

{"compound": "O=CC=O", "endpoint-result": "negative"}
{"compound": "CC(=O)Nc1ccc2c(c1)Cc1ccccc1-2", "endpoint-result": "positive"}
{"compound": "OC[C@@H](O)[C@@H](O)[C@H](O)[C@H](O)CO", "endpoint-result": "negative"}
{"compound": "Nc1ccc(Cl)cc1", "endpoint-result": "negative"}

**Q:** Hello, I am looking for reported RS Comet assay overall classification with Phenion®FT Skin Models (keratinocytes and fibroblasts) for "O=[N+]([O-])c1ccc(O)cc1" . Could you help?
**A:** negative

**Q:** Hello, I am looking for reported RS Comet assay overall classification with Phenion®FT Skin Models (keratinocytes and fibroblasts) for "NC(=S)N(C1CCCCC1)C1CCCCC1" . Could you help?
**A:** negative

**Q:** Hello, I am looking for reported RS Comet assay overall classification with Phenion®FT Skin Models (keratinocytes and fibroblasts) for "COc1cc(/C=C/C(=O)CC(=O)/C=C/c2ccc(O)c(OC)c2)ccc1O" . Could you help?
**A:** negative

**Q:** Hello, I am looking for reported RS Comet assay overall classification with Phenion®FT Skin Models (keratinocytes and fibroblasts) for CC1(C)S[C@@H]2[C@H](NC(=O)[C@H](N)c3ccccc3)C(=O)N2[C@H]1C(=O)O [Ampicillin sodium salt] . Could you help?
**A:** negative

---

Observed RS Comet assay overall classification, system Phenion®FT Skin Models (keratinocytes and fibroblasts).

{"compound": "Cc1c(N)cccc1N", "RS Comet assay overall classification": "negative"}
{"compound": "CCCCCl [N-butyl chloride]", "RS Comet assay overall classification": "negative"}
{"compound": "Nc1nc[nH]n1", "RS Comet assay overall classification": "negative"}
